All figures here come from patent US20130303507A1.

# Lookup of reported IC50 keyed by entry
# tested-system: Cdk9/cyclinT1 (Homo sapiens)
# Sequence (P50750 whole entry): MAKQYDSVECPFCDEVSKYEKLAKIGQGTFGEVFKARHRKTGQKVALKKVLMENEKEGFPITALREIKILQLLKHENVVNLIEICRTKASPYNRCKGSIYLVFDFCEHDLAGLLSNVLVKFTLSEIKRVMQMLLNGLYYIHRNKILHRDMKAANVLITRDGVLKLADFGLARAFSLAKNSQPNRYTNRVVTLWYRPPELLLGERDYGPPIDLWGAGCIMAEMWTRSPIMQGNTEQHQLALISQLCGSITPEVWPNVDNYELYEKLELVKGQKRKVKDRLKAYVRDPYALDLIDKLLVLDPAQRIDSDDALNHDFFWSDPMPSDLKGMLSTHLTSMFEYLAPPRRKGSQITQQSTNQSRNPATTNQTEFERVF
# Sequence (O60563 whole entry partner): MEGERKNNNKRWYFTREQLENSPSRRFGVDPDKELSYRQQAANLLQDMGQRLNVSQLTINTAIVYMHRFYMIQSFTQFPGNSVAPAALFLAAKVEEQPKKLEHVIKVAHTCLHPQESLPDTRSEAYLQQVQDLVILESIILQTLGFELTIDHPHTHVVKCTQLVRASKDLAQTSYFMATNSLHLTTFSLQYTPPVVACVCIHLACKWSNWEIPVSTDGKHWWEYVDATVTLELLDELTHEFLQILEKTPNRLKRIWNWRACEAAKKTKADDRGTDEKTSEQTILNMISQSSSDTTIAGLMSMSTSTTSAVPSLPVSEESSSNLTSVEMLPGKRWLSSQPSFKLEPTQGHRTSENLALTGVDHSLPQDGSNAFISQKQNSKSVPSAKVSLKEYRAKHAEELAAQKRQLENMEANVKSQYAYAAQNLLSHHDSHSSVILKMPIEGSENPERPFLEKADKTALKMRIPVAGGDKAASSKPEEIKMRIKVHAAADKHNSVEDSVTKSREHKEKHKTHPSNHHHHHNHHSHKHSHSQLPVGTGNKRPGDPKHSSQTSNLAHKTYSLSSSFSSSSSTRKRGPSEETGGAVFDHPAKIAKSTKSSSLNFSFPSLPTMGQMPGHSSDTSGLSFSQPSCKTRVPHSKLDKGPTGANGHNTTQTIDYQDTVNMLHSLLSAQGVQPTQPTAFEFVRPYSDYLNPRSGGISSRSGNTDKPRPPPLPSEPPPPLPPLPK
# run-description: Cdk9/cyclinT1 IMAP protocol (fluorescence polarization)
# experimental-parameters: IC-50, CDK9; lower limit of assay 0.0005 micromolar

> print(dat)
                                   molecule  value.observed
1  CNC(=O)CN[C@H]1CC[C@H](Nc2cc(-c3cccc(NCC4(C#N)CCOCC4)n3)c(Cl)cn2)CC1 [Compound 420]        < 0.5 nM
2  N#CC1(CNc2cccc(-c3cc(N[C@H]4CC[C@H](NCCF)CC4)ncc3Cl)n2)CCOCC1 [Compound 424]        < 0.5 nM
3  COC(=O)NC[C@H]1CC[C@H](Nc2cc(-c3cccc(NCC4(C#N)CCOCC4)n3)c(Cl)cn2)CC1 [Compound 497]        < 0.5 nM

Form: molecule = C[C@@H]1CN([C@H]2CC[C@H](Nc3cc(-c4cccc(NCC5(C#N)CCOCC5)n4)c(Cl)cn3)CC2)C[C@H](C)O1 [Compound 426] ; IC50 = ≤ 0.5 nM
